- METHOD_NOTES: Bridging study of monophosphate salt and free base in dog (plasma pharmacokinetics)
- Type: in vivo
- ASSAY_SETUP: female, po, 40 mg/kg, dog F-5101, oral gavage
VALUE_KIND: Tmax (h)
# unit: h | format: bare number

Exercise: Form field: reported Tmax of CN1C(=O)c2c(nn(Cc3ccc(-c4cccc(F)n4)cc3)c2Nc2ccccc2)N2C1=N[C@@H]1CCC[C@@H]12 [Free base API (amorphous)]
Solution: 8

* * *

- METHOD_NOTES: Bridging study of monophosphate salt and free base in dog (plasma pharmacokinetics)
- Assay type: in vivo
- ASSAY_SETUP: female, po, 40 mg/kg, dog F-1101, oral gavage, read-out: E Half-life (converted)
Counter-ions that a name gives are not always drawn.
VALUE_KIND: half-life (h)
Field: numeric (h). Do not append units.

Exercise: Fill in: half-life of CN1C(=O)c2c(nn(Cc3ccc(-c4cccc(F)n4)cc3)c2Nc2ccccc2)N2C1=N[C@@H]1CCC[C@@H]12 [Phosphate salt] is ___
Solution: 6.6
